Experimental details: Single dose pharmacokinetics of orally administered MPV in SPF cats
Assay type: in vivo, cat
Cond: male, serum, po, 10 mg/kg, serum MPV, 10 mg/kg oral molnupiravir, mean of 3 cats; read-out: AUC (AUC0-t) of MPV
Readout type: AUC(0-t) (ng·h/mL)
One number for each entry, in ng·h/mL.

**Q:** I would be grateful if you could share the reported AUC(0-t) for CC(C)C(=O)OC[C@H]1O[C@@H](n2ccc(NO)nc2=O)[C@H](O)[C@@H]1O .
**A:** 27.5

----------
Experimental details: in vivo
Design: species or system cat
Cond: male, iv, 7 mg/kg, AUC0-24 of GS-441524
Readout type: AUC(0-t) (µM·h)
Numbers only, in µM·h.

**Q:** I would be grateful if you could share the reported AUC(0-t) for N#C[C@@]1(c2ccc3c(N)ncnn23)O[C@H](CO)[C@@H](O)[C@H]1O .
**A:** 45
